Recorded values, source the DeepSol protein solubility set.

protocol: soluble on expression in E. coli; label from the status in PepcDB or PDB records

- record_sequence: "MSKRTTPTYPVEVIRSDRRTRTVSARLVGGKILIRIPASMSKKDEKKFVAEMVDKVRTKTQSSAPTDEALLHRAQHLNRTVLENRATIGSIRWVTNQTRRWGSCSQTTNDIRISHRLQGVPDYVLDAVIIHEMVHTFIEGGHSPEFWQWADKAPKAERAKGYLEAWQRMGDVGLEHHHHHH"
  soluble on expression in E. coli: "not soluble"
- record_sequence: "MSRSRSAAASSSQKPDDMDLMSPDGSASSPSAPNTPATNSGGFSSDRKKATHLRCERQRREAINSGYSDLKDLIPQTTTSLGCKTTNAAILFRACDFMSQLKTDISDADKQLAQLNAQAAALEMIASEYEQMASSVPDAGQSTIQVKMLQLLLDDCFTSFSSQVDFTTYATITRTLLSWVESLAPNAEPFKSTAGKMVTMPFTSP"
  soluble on expression in E. coli: "not soluble"
